Sourced from ChEMBL document CHEMBL1132210

# Experimental system: UniProt:P06239
# Test details: Binding affinity towards p56 Lck tyrosine kinase SH2 domain was determined by biological assay
Non-standard residues stand in square brackets, D forms with d. Residues, ends and D or L forms follow the SMILES beside them. Phe(4-CH2COOH) = N[C@@H](Cc1ccc(CC(=O)O)cc1)C(=O)O
Metric name: log10 Kd (log10 of the value in µM)
Transform log10 | Measure Kd | Unit µM

Task: I would be grateful if you could share the reported log10 Kd for COc1ccc(CNC(=O)[C@H](CCC(=O)O)NC(=O)[C@H](Cc2ccc(C(=O)C(=O)O)cc2)NC(C)=O)cc1 .
Output: 1.81

Task: # repeat for COc1ccc(CNC(=O)[C@H](CCC(=O)O)NC(=O)[C@H](Cc2ccc(CCC(=O)O)cc2)NC(C)=O)cc1
Output: 2.26

Task: Next: COc1ccc(CNC(=O)[C@H](CCC(=O)O)NC(=O)[C@H](Cc2ccc(C(O)C(=O)O)cc2)NC(=O)Cc2cccc3ccccc23)cc1 (some centres not stated)
Output: 0.30

Task: Now try COc1ccc(CNC(=O)[C@H](CCC(=O)O)NC(=O)[C@H](Cc2ccc(NC(=O)C(=O)O)cc2)NC(=O)Cc2ccccc2)cc1 .
Output: 1.23

Task: Next: COc1ccc(CNC(=O)[C@H](CCC(=O)O)NC(=O)[C@H](Cc2ccc(C(F)(F)C(=O)O)cc2)NC(C)=O)cc1
Output: 2.22

Task: Can you check CC[C@H](C)[C@H](NC(=O)[C@H](CCC(=O)O)NC(=O)[C@H](CCC(=O)O)NC(=O)[C@H](Cc1ccc(CC(=O)O)cc1)NC(C)=O)C(=O)O (Ac-[Phe(4-CH2COOH)]EEI-OH) next?
Output: 1.62

Task: Thanks! And COc1ccc(CNC(=O)[C@H](CCC(=O)O)NC(=O)[C@H](Cc2ccc(C(O)C(=O)O)cc2)NC(C)=O)cc1 (some centres not stated) ?
Output: 1.18

###

# Experimental system: Tyrosine-protein kinase Lck (Homo sapiens)
# Sequence (P06239 whole entry, the tested form may be a part): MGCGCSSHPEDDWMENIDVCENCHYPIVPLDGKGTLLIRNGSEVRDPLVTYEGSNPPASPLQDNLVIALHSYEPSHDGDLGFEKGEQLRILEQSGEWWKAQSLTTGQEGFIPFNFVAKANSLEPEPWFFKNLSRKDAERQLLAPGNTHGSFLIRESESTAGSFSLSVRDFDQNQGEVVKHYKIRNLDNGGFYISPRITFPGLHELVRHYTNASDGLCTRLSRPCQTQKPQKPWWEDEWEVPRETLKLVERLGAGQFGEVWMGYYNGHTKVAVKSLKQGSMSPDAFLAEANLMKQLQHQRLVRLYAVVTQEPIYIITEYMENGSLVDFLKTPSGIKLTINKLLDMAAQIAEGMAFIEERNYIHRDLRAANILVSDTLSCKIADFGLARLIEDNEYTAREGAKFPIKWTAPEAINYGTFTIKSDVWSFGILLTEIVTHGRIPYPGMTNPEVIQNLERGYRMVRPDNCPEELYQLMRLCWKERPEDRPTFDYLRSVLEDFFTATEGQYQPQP
# Test details: Binding affinity towards p56 Lck tyrosine kinase SH2 domain was determined by biological assay
Metric name: Kd (µM)
Give your result in µM as a bare value.

Task: // lookup Kd for COc1ccc(CNC(=O)[C@H](CCC(=O)O)NC(=O)[C@H](Cc2ccc(NC(=O)C(=O)O)cc2)NC(C)=O)cc1
Output: 42

Task: And the next one, COc1ccc(CNC(=O)[C@H](CCC(=O)O)NC(=O)[C@H](Cc2ccc(NC(=O)C(=O)O)cc2)NC(=O)CCc2ccccc2)cc1 ?
Output: 13

Task: Request: COc1ccc(CNC(=O)[C@H](CCC(=O)O)NC(=O)[C@H](Cc2ccc(OP(=O)(O)O)cc2)NC(=O)Cc2cccc3ccccc23)cc1
Output: 0.04

Task: And COc1ccc(CNC(=O)[C@H](CCC(=O)O)NC(=O)[C@H](Cc2ccc(CC(=O)O)cc2)NC(C)=O)cc1 ?
Output: 50

Task: For COc1ccc(CNC(=O)[C@H](CCC(=O)O)NC(=O)[C@H](Cc2ccc(CS(=O)(=O)O)cc2)NC(C)=O)cc1 then?
Output: 25
